This collection of values is drawn from patent US4847293A.

- Experiment: Diarrhea Assay
- Assay type: in vivo, male Charles River rats
- Run Conditions: in vivo; ratio of rat diarrhea ED50 to Pavlov pouch antisecretory ED50; read-out: Thrapeutic Index ED50 diarrhea/ED50 antisecretory
Reported Endpoint: selectivity ratio
Answers are plain numbers.

Any idea what selectivity ratio was measured for COC(=O)CC/C=C\CC[C@H]1C(=O)C[C@@H](O)[C@@H]1/C=C/CC(C)(O)/C=C/C1=CCCC1 (relative stereo) [Example 1] ?
160000
